Hello, the source for this data is PubChem BioAssay, in case you need it.

- test-details: nonspecific calcium rise without TRPC4 – cell-based, HEK293 mu-opioid receptor line, counter-screen for TRPC4 activator project, confirmation (AID 449723);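 note: counter screen cells carry the mu-opioid receptor alone and lack TRPC4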
- assay-context: HEK293 mu-opioid cells, Fluo-4 calcium fluorescence, at 10 µM
Active and inactive are the calls of the source.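 Rule for the calls: active = hit in primary screen, with calcium signal over 5 SD above buffer well mean in both duplicates; inactive = the rest.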
Possible outcomes: 1.0 for active, 0.0 for inactive

compound: O=C(N/N=C/c1cc2c(cc1Br)OCO2)c1cc2ccccc2o1
category-label: 0.0

compound: CC1CCN(CCCNS(=O)(=O)c2cc(Br)cc3c2N(C(=O)C2CC2)CC3)CC1
category-label: 0.0

compound: C=CCSc1nc2c(c(=O)[nH]c(=O)n2C)n1C/C=C(/C)Cl
category-label: 0.0

compound: NC(=O)N/N=C1\c2ccccc2-c2c(C(N)=O)cccc21
category-label: 0.0

compound: COc1ccc(C(=O)OCCc2sc[n+](CC(=O)c3ccccc3)c2C)cc1
category-label: 0.0

compound: Cc1ccc(Nc2cc(C)nc3c(C)cccc23)cc1
category-label: 0.0

compound: CNC[C@H](Cc1ccccc1)NC[C@@H](Cc1cccc2ccccc12)NCCc1ccc(C)cc1
category-label: 1.0

compound: COc1cc(NC(=O)C(C)Oc2ccccc2)cc(OC)c1 (centres undefined)
category-label: 0.0

compound: O=C1/C(=C\c2cc([N+](=O)[O-])ccc2O)SC(=S)N1Cc1ccc(Cl)cc1
category-label: 1.0

compound: Cc1ccc(NC(=S)NC2CC3CCC(C2)N3Cc2ccco2)c(C)c1 (centres undefined)
category-label: 0.0

compound: Cc1cccc(/C=N/NC(=O)c2cccc(Cl)c2)n1
category-label: 0.0

compound: O=C(C1=C[C@H](c2ccc(C(F)(F)F)cc2)C[C@H](OCCCCO)O1)N1CCN(Cc2ccccc2)CC1
category-label: 0.0

compound: Cc1ccc(O)c(CNc2nc3ccccc3[nH]2)c1
category-label: 0.0

compound: CCCCc1nc(SCCOC)c2c(=O)n(C)c(=O)n(C)c2n1
category-label: 0.0

compound: Cc1ccc(CNC(=O)CSc2nc(=O)n3ccccc3n2)cc1
category-label: 0.0

compound: CCCCC(=O)N(c1ccc(C(=O)O)cc1)c1nc(-c2ccc(Cl)cc2)c(CC)s1
category-label: 0.0

compound: COc1cc(OC)cc(C(=O)NC(=S)NNC(=O)Cc2cccs2)c1
category-label: 1.0

compound: CCN1CCN(c2nc(C)c3c(n2)CC(C)CC3=O)CC1 (centres undefined)
category-label: 0.0

compound: CC(=O)c1ccc(OCC(O)CN2CCN(S(=O)(=O)c3c(C)cc(C)cc3C)CC2)cc1 (centres undefined)
category-label: 0.0

compound: O=C(CC1C(=O)NCCN1C(=O)Nc1ccccc1)Nc1cc(Cl)cc(Cl)c1 (centres undefined)
category-label: 0.0

compound: CC1CCCN1CC#CC(O)(c1ccccc1)c1ccccc1 (centres undefined)
category-label: 0.0

compound: CCn1cc(CN2CCCC(CO)(Cc3cccc(Cl)c3)C2)cn1 (centres undefined)
category-label: 0.0

compound: Cc1ccc(CS(=O)(=O)CCC(=O)NCCC2=CCCCC2)cc1
category-label: 0.0

compound: CCC(O)C1CCN(Cc2cn(-c3ccc(OC)cc3)nc2-c2cccc(F)c2)CC1 (centres undefined)
category-label: 0.0

compound: COc1cc(CN2CCC(CO)(CCOc3ccccc3)CC2)cc(OC)c1
category-label: 0.0

compound: CCCCNc1nc(-c2ccccc2)c(C(=O)OCC)cc1C#N
category-label: 0.0

compound: COCCn1c(SCC(=O)Nc2ccc(S(=O)(=O)N3CCOCC3)cc2)nc2ccccc21
category-label: 0.0

compound: COc1cccc(C(=O)Oc2ccc(/C=N/Nc3ccc(C(=O)O)cc3)cc2OC)c1
category-label: 0.0

compound: CCOC(=O)c1cc(=O)n(Cc2ccccc2C)c2ccccc12
category-label: 0.0

compound: Cc1ccc(C(=O)Nc2nnc(C3=COCCO3)o2)cc1C
category-label: 0.0

compound: C/C(=N\N1CCN(C)CC1)c1ccc(Cl)c(Cl)c1
category-label: 0.0

compound: Cc1nn(-c2ccccc2)c(Cl)c1CN(C(=O)CCl)c1ccc(Cl)cc1
category-label: 0.0

compound: CCOc1ccc2ccccc2c1CNCCc1ccc(S(N)(=O)=O)cc1
category-label: 0.0

compound: OCC1(CC2CCCCO2)CCN(Cc2ccccc2-c2ccco2)CC1 (centres undefined)
category-label: 0.0

compound: CC1CCN(CCCCOc2ccc([N+](=O)[O-])cc2)CC1
category-label: 0.0

compound: CCOC(=O)C(C)Sc1nc2c(c(=O)[nH]c(=O)n2C)n1Cc1ccc(Cl)cc1 (centres undefined)
category-label: 0.0

compound: Cc1cc(CSC(=N)N)c(CSC(=N)N)cc1C
category-label: 0.0

compound: Cn1ncc(C#N)c1/N=C/N(Cc1ccccc1)Cc1ccccc1
category-label: 0.0

compound: CCOC(=O)c1cnc(-n2nc(C)cc2C)nc1NC1CCCCC1
category-label: 0.0

compound: CCOc1ccc(Nc2nc(Cc3nnc(SCC(=O)c4ccc(C)cc4)o3)cs2)cc1
category-label: 0.0

compound: COc1ccccc1Nc1nc(NCC2CCCO2)c2ccccc2n1 (centres undefined)
category-label: 0.0

compound: CC(=O)Nc1ccc(S(=O)(=O)NC2=C(N3CCN(Cc4ccccc4)CC3)C(=O)c3ccccc3C2=O)cc1
category-label: 0.0

compound: O=C(NCCN1CCOCC1)c1ccc2c(c1)N(Cc1ccc(F)cc1)C(=O)CS2
category-label: 0.0

compound: Cc1ccc(S(=O)(=O)N2CCC(C(=O)OCC(=O)N(C)CC(=O)Nc3ccc(F)cc3)CC2)cc1C
category-label: 0.0
